Give measured Ki for each item. Keep answers brief.
molecular target: Carbonic anhydrase 12 (Homo sapiens)
Sequence (O43570 whole entry): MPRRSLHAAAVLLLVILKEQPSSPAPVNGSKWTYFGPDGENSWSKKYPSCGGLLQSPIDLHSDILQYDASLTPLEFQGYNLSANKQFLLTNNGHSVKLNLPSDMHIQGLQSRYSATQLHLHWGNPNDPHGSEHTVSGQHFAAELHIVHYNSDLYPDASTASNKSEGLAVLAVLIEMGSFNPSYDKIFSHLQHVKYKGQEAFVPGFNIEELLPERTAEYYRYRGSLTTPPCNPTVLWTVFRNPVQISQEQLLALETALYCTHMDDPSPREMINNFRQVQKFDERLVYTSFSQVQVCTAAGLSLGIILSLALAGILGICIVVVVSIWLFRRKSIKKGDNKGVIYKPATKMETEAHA
Give bare numbers, in nM.

Past entries and their recorded results:
CC(=O)c1ccc(NC(=O)Nc2ccc(S(N)(=O)=O)cc2)cc1 : 4.6
NS(=O)(=O)c1ccc(NC(=O)Nc2ccc(Cl)cc2)cc1 : 5.3
NS(=O)(=O)c1ccc(NC(=O)Nc2ccc(Br)cc2)cc1 : 7.9

Hi team, please reply with Ki for each item in this list.
1. CCCCOc1ccc(NC(=O)Nc2ccc(S(N)(=O)=O)cc2)cc1
2. NS(=O)(=O)c1ccc(NC(=O)Nc2ccc(Oc3ccccc3)cc2)cc1

1: 2.5; 2: 7.1

----------
Notes on Ki obtained with Carbonic anhydrase 9 (Homo sapiens, UniProt Q16790).
Answers are plain numbers, in nM.

CC(C)c1ccc(NC(=O)Nc2ccc(S(N)(=O)=O)cc2)cc1 : 541
NS(=O)(=O)c1ccc(NC(=O)Nc2ccc(I)cc2)cc1 : 24.5
N#Cc1ccc(NC(=O)Nc2ccc(S(N)(=O)=O)cc2)cc1 : 6

Need Ki of CCCCc1ccc(NC(=O)Nc2ccc(S(N)(=O)=O)cc2)cc1 , thanks. 376
